// values below are reported %Inh
# System: PKN2
# conditions: concentration: 1 μM,replicates: in singlicate; n = 1;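 also: KINOMEscan kinase panel screen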
measured.property: %Inh (%)

molecule: Cc1n[nH]c2ccc(-c3cc(OC[C@@H](N)Cc4ccccc4)cnc3-c3ccoc3)cc12.O=C(O)C(F)(F)F.O=C(O)C(F)(F)F
readout.units: %
test.result: 9

molecule: CC(C)Nc1cc(-c2ccc3c(N)n[nH]c3c2)nc(N)n1
readout.units: %
test.result: 0

molecule: C[C@H]1Oc2cc(cnc2N)-c2c(nn(C)c2C#N)CN(C)C(=O)c2ccc(F)cc21
readout.units: %
test.result: 0

molecule: CN(C)CC(O)COc1ccc(Nc2nccc(-c3cnn4nc(N5CCOCC5)ccc34)n2)cc1 (stereo not shown)
readout.units: %
test.result: 38

* * *

# Test system: NLK
# conditions: concentration: 1 μM,replicates: in singlicate; n = 1
// values below are reported %Inh

compound: CCN(CC)CCCCNc1ncc2cc(-c3c(Cl)cccc3Cl)c(NC(=O)NC(C)(C)C)nc2n1
%Inh [%]: 81
--
compound: CN(C)CCOc1ccc(-c2cc(-c3c[nH]nc3-c3ccccn3)ccn2)cc1
%Inh [%]: 0
--
compound: COc1ccc(C[C@@H](CN)NC(=O)c2cc(Br)c(-c3ccnc4[nH]ccc34)s2)cc1.Cl.Cl
%Inh [%]: 0
--
compound: Cl.Cl.Nc1nc(-c2ccc3c(N)n[nH]c3c2)cc(N2CCCC(NC(=O)c3ccccc3)C2)n1 (stereo not drawn)
%Inh [%]: 13
--
compound: O=C(NCCCN1CCOC1=O)c1cnc(NCc2cc(Cl)ccc2Cl)nc1NC1CCCC1
%Inh [%]: 17
--
compound: CN(C)CC(O)COc1ccc(Nc2nccc(-c3cnn4nc(N5CCOCC5)ccc34)n2)cc1 (stereo not drawn)
%Inh [%]: 11
--
compound: Cl.Oc1cc(-c2nc(-c3ccccc3)[nH]c2-c2ccncc2)ccc1Cl
%Inh [%]: 90
--
compound: Nc1nc(Nc2ccccc2)cc(-c2ccc3c(N)n[nH]c3c2)n1
%Inh [%]: 3
--
compound: C[C@@H]1CCN(C(=O)CC#N)C[C@@H]1N(C)c1ncnc2[nH]ccc12
%Inh [%]: 12

* * *

# Test system: MAK
# conditions: concentration: 1 μM,replicates: in singlicate; n = 1

molecule: Cc1ccc(-n2nc(C(C)(C)C)cc2NC(=O)Nc2ccc(OCCN3CCOCC3)c3ccccc23)cc1
test.target: MAK
readout.units: %
%Inh: 25
--
molecule: CN(C)CC(O)COc1ccc(Nc2nccc(-c3cnn4nc(N5CCOCC5)ccc34)n2)cc1 (centres unmarked)
test.target: MAK
readout.units: %
%Inh: 21
--
molecule: C=CC(=O)Nc1cc2c(Nc3ccc(F)c(Cl)c3)ncnc2cc1OCCCN1CCOCC1
test.target: MAK
readout.units: %
%Inh: 0
--
molecule: Cc1cc(C(=O)Nc2ccc(Oc3ccc4nc(NC(=O)C5CC5)cn4n3)cc2)nn1-c1ccccc1
test.target: MAK
readout.units: %
%Inh: 0
--
molecule: C[C@H]1Oc2cc(cnc2N)-c2c(nn(C)c2C#N)CN(C)C(=O)c2ccc(F)cc21
test.target: MAK
readout.units: %
%Inh: 18
--
molecule: CCN(CC)CCOc1ccc(Nc2ncc3cc(-c4c(Cl)cccc4Cl)c(=O)n(C)c3n2)cc1
test.target: MAK
readout.units: %
%Inh: 24
--
molecule: Cc1cc2cn[nH]c2cc1-c1cccc2c(N)c(C(N)=O)nnc12
test.target: MAK
readout.units: %
%Inh: 16
--
molecule: Cl.Cl.Nc1nc(-c2ccc3c(N)n[nH]c3c2)cc(N2CCCC(NC(=O)c3ccccc3)C2)n1 (centres unmarked)
test.target: MAK
readout.units: %
%Inh: 15
--
molecule: Cl.Cl.NC[C@H](CC1CCCCC1)NC(=O)c1cc(Br)c(-c2ccnc3[nH]ccc23)s1
test.target: MAK
readout.units: %
%Inh: 12
--
molecule: CC(C)Nc1cc(-c2ccc3c(N)n[nH]c3c2)nc(N)n1
test.target: MAK
readout.units: %
%Inh: 0
--
molecule: CC(C)N1C(=O)Cc2cc(Nc3ncc(C(F)(F)F)c(NCc4cccc(S(C)(=O)=O)c4)n3)ccc21
test.target: MAK
readout.units: %
%Inh: 0
--
molecule: C[C@@H](Oc1cc(-c2cnn(C3CCNCC3)c2)cnc1N)c1c(Cl)ccc(F)c1Cl
test.target: MAK
readout.units: %
%Inh: 0
--
molecule: CCn1c(-c2nonc2N)nc2c(C#CC(C)(C)O)nc(OCCN)cc21.Cl.Cl
test.target: MAK
readout.units: %
%Inh: 39
--
molecule: C[C@@H]1CCN(C(=O)CC#N)C[C@@H]1N(C)c1ncnc2[nH]ccc12
test.target: MAK
readout.units: %
%Inh: 0
--
molecule: CCN(CC)CCCCNc1ncc2cc(-c3c(Cl)cccc3Cl)c(NC(=O)NC(C)(C)C)nc2n1
test.target: MAK
readout.units: %
%Inh: 0
--
molecule: CNC(=O)c1ccccc1Sc1ccc2c(/C=C/c3ccccn3)n[nH]c2c1
test.target: MAK
readout.units: %
%Inh: 26
--
molecule: Cc1n[nH]c2ccc(-c3cc(OC[C@@H](N)Cc4ccccc4)cnc3-c3ccoc3)cc12.O=C(O)C(F)(F)F.O=C(O)C(F)(F)F
test.target: MAK
readout.units: %
%Inh: 0
--
molecule: O=C(NCCNc1ccnc(NCc2ccc(F)cc2)n1)c1cc2ccccc2s1
test.target: MAK
readout.units: %
%Inh: 19
--
molecule: CN(C)CCOc1ccc(-c2cc(-c3c[nH]nc3-c3ccccn3)ccn2)cc1
test.target: MAK
readout.units: %
%Inh: 30
--
molecule: Nc1nc(Nc2ccccc2)cc(-c2ccc3c(N)n[nH]c3c2)n1
test.target: MAK
readout.units: %
%Inh: 13
